B1: Twister Ribozyme (parent)
chain: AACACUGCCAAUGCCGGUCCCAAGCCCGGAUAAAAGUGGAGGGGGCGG

# Variants of: B1
# METHOD_DESCRIPTION: self-cleavage, relative activity (ratio to wild type); higher = more cleavage; co-transcriptional
Label N if self-cleavage falls below 0.2; label Y in every other case.

- G7A G13C: N
- C9G G39U: N
- U18C G28U: N
- U18G A32G: N
- U6A A33U: Y
- C14A A30G: Y
- C27U G43A: Y
- C3G G38U: Y
- C20A A22U: N
- A4U C15G: N
- C26A C27U: N
- A2U U6A: N
- A1G A22C: Y
- C14G G39U: N
- C5U G36A: Y
- G17A A23C: N
- C19G G47A: N
- G45A G47A: Y
- G24A A32G: N
- A34U U37C: N
